// provenance: patent US9688764B2

Measured FACS Cell Binding (Fold Above Background), listed per entry.
# Test system: HEK293 (non-expressing parental cells)
# experimentalDetails: FACS cell surface binding
observationType: FACS Cell Binding (Fold Above Background)

>  <molecule>
H1H6976N: human IgG1 Fc form of H2M6976N; anti-PRLR; HCVR/LCVR SEQ ID NOs 386/394 (antibody, V domains shown, human IgG1 Fc) VH: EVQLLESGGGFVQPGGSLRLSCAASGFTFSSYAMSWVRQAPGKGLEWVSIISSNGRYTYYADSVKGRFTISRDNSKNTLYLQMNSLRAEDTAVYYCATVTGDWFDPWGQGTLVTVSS VL: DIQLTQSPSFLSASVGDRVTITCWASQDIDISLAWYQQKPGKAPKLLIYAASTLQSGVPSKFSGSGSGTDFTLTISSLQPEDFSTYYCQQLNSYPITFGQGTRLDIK

>  <scaleUnit>
Fold Above Background

>  <reportedMeasurement>
1

$$$$
>  <molecule>
H1H6967N: human IgG1 Fc form of H2M6967N; anti-PRLR; HCVR/LCVR SEQ ID NOs 354/362 (antibody, V domains shown, human IgG1 Fc) VH: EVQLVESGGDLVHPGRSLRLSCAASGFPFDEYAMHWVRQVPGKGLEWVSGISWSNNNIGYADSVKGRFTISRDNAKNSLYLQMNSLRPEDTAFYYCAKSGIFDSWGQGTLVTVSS VL: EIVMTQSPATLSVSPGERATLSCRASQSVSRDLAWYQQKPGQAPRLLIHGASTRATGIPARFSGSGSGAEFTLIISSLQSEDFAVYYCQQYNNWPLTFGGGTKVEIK

>  <scaleUnit>
Fold Above Background

>  <reportedMeasurement>
1

$$$$
>  <molecule>
H1H6801P: anti-PRLR antibody, human IgG1 Fc; HCVR/LCVR SEQ ID NOs 210/218 (antibody, V domains shown, human IgG1 Fc) VH: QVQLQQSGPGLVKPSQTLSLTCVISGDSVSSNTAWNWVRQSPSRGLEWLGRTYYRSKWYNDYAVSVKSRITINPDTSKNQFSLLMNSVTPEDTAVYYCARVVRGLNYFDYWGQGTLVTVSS VL: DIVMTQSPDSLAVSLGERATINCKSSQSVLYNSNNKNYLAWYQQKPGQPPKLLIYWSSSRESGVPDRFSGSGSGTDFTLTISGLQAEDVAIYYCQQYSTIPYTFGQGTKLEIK

>  <scaleUnit>
Fold Above Background

>  <reportedMeasurement>
7

$$$$
